# System: PC-3
# TEST_NAME: Cytotoxicity against human PC3 cells assessed as decrease in cell viability after 48 hrs
# Type: functional, cell-based
# STATED_CONDITIONS: PC-3, 48 h
pIC50: −log10 of the molar value.

{"columns": ["COMPOUND", "pIC50"],
 "data": [
  ["COc1ccc(C[C@H](N)C(=O)N[C@H]2[C@@H](O)[C@H](n3cnc4c(N(C)C)ncnc43)O[C@@H]2CO)cc1 [PUROMYCIN]", 6.52]
]}
